Target: T1, human ICOS, full-length, expressed on transfected Expi293 cells (human, UniProt Q9Y6W8 21-199)
T1 construct: whole, on cells
T1 sequence (looked up): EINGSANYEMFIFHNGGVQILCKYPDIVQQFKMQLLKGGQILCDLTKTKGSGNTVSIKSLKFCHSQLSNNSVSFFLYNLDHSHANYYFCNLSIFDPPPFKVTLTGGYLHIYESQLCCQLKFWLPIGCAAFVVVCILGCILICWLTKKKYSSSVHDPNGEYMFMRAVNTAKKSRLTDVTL
Assay: flow cytometry, 100 nM, Expi293 cells with human ICOS
EXPERIMENTAL READOUT: MFI (MFI)
Answers are plain numbers, in MFI.

variant ICOSL IgV-Fc fusion N52H/N57Y/Q100K (Fc fusion) DTQEKEVRAMVGSDVELSCACPEGSRFDLNDVYVYWQTSESKTVVTYHIPQHSSLEYVDSRYRNRALMSPAGMLRGDFSLRLFNVTPQDEQKFHCLVLSKSLGFQEVLSVEVTLHVAANFSVGSGGGGSEPKSSDKTHTCPPCPAPEAEGAPSVFLFPPKPKDTLMISRTPEVTCVVVDVSHEDPEVKFNWYVDGVEVHNAKTKPREEQYNSTYRVVSVLTVLHQDWLNGKEYKCKVSNKALPAPIEKTISKAKGQPREPQVYTLPPSREEMTKNQVSLTCLVKGFYPSDIAVEWESNGQPENNYKTTPPVLDSDGSFFLYSKLTVDKSRWQQGNVFSCSVMHEALHNHYTQKSLSLSPG    214000

// each binder listed below needs its MFI
1. variant ICOSL IgV-Fc fusion N52A/N57Y/Q100A (Fc fusion) DTQEKEVRAMVGSDVELSCACPEGSRFDLNDVYVYWQTSESKTVVTYHIPQASSLEYVDSRYRNRALMSPAGMLRGDFSLRLFNVTPQDEQKFHCLVLSASLGFQEVLSVEVTLHVAANFSVGSGGGGSEPKSSDKTHTCPPCPAPEAEGAPSVFLFPPKPKDTLMISRTPEVTCVVVDVSHEDPEVKFNWYVDGVEVHNAKTKPREEQYNSTYRVVSVLTVLHQDWLNGKEYKCKVSNKALPAPIEKTISKAKGQPREPQVYTLPPSREEMTKNQVSLTCLVKGFYPSDIAVEWESNGQPENNYKTTPPVLDSDGSFFLYSKLTVDKSRWQQGNVFSCSVMHEALHNHYTQKSLSLSPG
2. variant ICOSL IgV-Fc fusion N52C/N57E/Q100S (Fc fusion) DTQEKEVRAMVGSDVELSCACPEGSRFDLNDVYVYWQTSESKTVVTYHIPQCSSLEEVDSRYRNRALMSPAGMLRGDFSLRLFNVTPQDEQKFHCLVLSSSLGFQEVLSVEVTLHVAANFSVGSGGGGSEPKSSDKTHTCPPCPAPEAEGAPSVFLFPPKPKDTLMISRTPEVTCVVVDVSHEDPEVKFNWYVDGVEVHNAKTKPREEQYNSTYRVVSVLTVLHQDWLNGKEYKCKVSNKALPAPIEKTISKAKGQPREPQVYTLPPSREEMTKNQVSLTCLVKGFYPSDIAVEWESNGQPENNYKTTPPVLDSDGSFFLYSKLTVDKSRWQQGNVFSCSVMHEALHNHYTQKSLSLSPG
3. variant ICOSL IgV-Fc fusion N52G/Q100A (Fc fusion) DTQEKEVRAMVGSDVELSCACPEGSRFDLNDVYVYWQTSESKTVVTYHIPQGSSLENVDSRYRNRALMSPAGMLRGDFSLRLFNVTPQDEQKFHCLVLSASLGFQEVLSVEVTLHVAANFSVGSGGGGSEPKSSDKTHTCPPCPAPEAEGAPSVFLFPPKPKDTLMISRTPEVTCVVVDVSHEDPEVKFNWYVDGVEVHNAKTKPREEQYNSTYRVVSVLTVLHQDWLNGKEYKCKVSNKALPAPIEKTISKAKGQPREPQVYTLPPSREEMTKNQVSLTCLVKGFYPSDIAVEWESNGQPENNYKTTPPVLDSDGSFFLYSKLTVDKSRWQQGNVFSCSVMHEALHNHYTQKSLSLSPG

Output:
[261000, 125000, 303000]

The measured values listed here are drawn from patent US20230235012A1.
